Target: Neurogenic locus notch homolog protein 2 (Homo sapiens)
Test: Notch2 binders on small-molecule microarrays, primary screen, biochemical, small-molecule microarray, 635 nm fluorescence, stem cell growth factors (AID 1073)
Conditions: Notch2 binding, higher = more signal
Measure: composite z-score
Returns: the value as a bare number; no unit string appended.

Previously resolved entries follow.
1) C=CCOC(=O)[C@H]1[C@@H]2C(=O)O[C@@H](c3ccccc3)[C@@H](c3ccccc3)N2[C@@H](c2ccc(OCCOC(=O)[C@@H]3C[C@@H]4C(=O)N[C@@H](CCCCN(C)C)C(=O)N4[C@@H]3c3ccc(O)cc3)cc2)[C@]12C(=O)Nc1ccc(I)cc12 : 0.766
2) COc1ccc([Si](C)(C)[C@H]2[C@H](CC(=O)N3Cc4ccccc4C[C@H]3CO)O[C@@]3(C(=O)N(Cc4ccc(N5CCC5=O)cc4)c4ccccc43)[C@@H]2C)cc1 : 0.198
3) O=C1NC(=O)C2C1C=CC(C(O)c1ccccc1)N2Nc1ccc(Cl)cc1Cl (stereo not given) : 1.54
4) COc1cc2c(cc1O)C(C1CC1)N(Cc1cc3c(cc1Br)OCO3)CC2 (stereo not given) : -0.695
5) COc1cc2c(cc1O)C=[N+](Cc1cccc(OC(F)(F)F)c1)CC2 : 0.457

Q. composite z-score for "COCCOC(=O)N1C(=O)[C@@]2(c3cc(C#CC4(O)CCCCCC4)ccc31)[C@H](c1ccc(O)cc1)N1[C@H](c3ccccc3)[C@H](c3ccccc3)OC(=O)[C@H]1[C@@H]2C(=O)Nc1nc2ccccc2s1" ?
A. 1.15

Q. composite z-score for "C=CCN1C(=O)[C@@]2(O[C@@H](CCO)[C@H]([Si](C)(C)c3ccc(OC)cc3)[C@H]2C)c2cc(NC(=O)c3ccc(OC)cc3)ccc21" ?
A. 0.454

Q. composite z-score for "O=C1O[C@H](c2ccccc2)[C@H](c2ccccc2)N2[C@H]1[C@@H](C(=O)N1CCN(c3ncccn3)CC1)[C@]1(C(=O)Nc3ccc(C#CC4=CCCCC4)cc31)[C@H]2c1ccc(O)cc1" ?
A. 1.28

Q. composite z-score for OC([C@@H]1CC(c2ccccc2)=NO1)[C@H]1CC(c2ccccc2)=NO1 (stereo not given in full) ?
A. 0.178

Q. composite z-score for "COCCOC(=O)N1C(=O)[C@@]2(c3ccccc31)[C@H](c1ccccc1OCCO)N1[C@H](c3ccccc3)[C@H](c3ccccc3)OC(=O)[C@H]1[C@@H]2C(=O)Nc1nc2ccccc2s1" ?
A. 1.02

Q. composite z-score for "[N-]=[N+]=Nc1ccccc1C[C@]1(C(N)=O)N=C(c2ccc(OCCCO)cc2)O[C@H]1c1ccccc1" ?
A. 0.361

----------
System: XIP peptide (Xip251-270) binding
Experiment: small-molecule binders of XIP peptide, primary screen, biochemical, small-molecule microarray, fluorescence 635/667 nm, 0.1 µg/mL protein (AID 1182)
Details: fluorescent protein binding, 635 nm, higher = more signal, called active from +8 up or from −8 down
Measure: composite z-score
Returns: the value as a bare number; no unit string appended.

Previously resolved entries follow.
1. CC(CO)N1C(=O)[C@@H]2C3C(=O)OCCC/C=C\[C@H]3OC23C=CCN(c2ccc4ccccc4c2)C(=O)[C@@H]13 (stereo partly drawn) : 0.372
2. C=C(/C(=C/C[C@@H](OC(C)=O)c1ccc(OCCO)cc1)c1cnc2ccccc2c1)C(C)C : 0.174
3. [N-]=[N+]=Nc1ccccc1C[C@]1(C(N)=O)N=C(c2ccc(OCCCO)cc2)O[C@H]1c1ccccc1 : -0.254
4. O=C1OCC=C[C@H]2OC34C=CCN(CCN5CCOCC5)C(=O)[C@H]3N(CCCO)C(=O)[C@@H]4[C@@H]12 (stereo partly drawn) : -0.0676
5. CC(C)C[C@H]1NC(=O)[C@@]23C(=O)N[C@@H](Cc4ccccc4)C2[C@H](C)[C@@]2(C)O[C@H]2C3/C=C/C/C=C\CNC(=O)[C@H](Cc2ccccc2)NC1=O (stereo partly drawn) : 0.303

Q. composite z-score for CCCCCC1=C2CNC(CCC)(C(=O)OC)C=C2C(C)C1=O (stereo not drawn) ?
A. 0.455

Q. composite z-score for "COC(=O)c1c(CC[C@@H](CO)NC(=O)N2CCC[C@H]2Cn2cc(-c3ccccn3)nn2)oc(C(C)=O)c1C(=O)OC" ?
A. 1.82

Q. composite z-score for CCOc1cc(C(O)C2C=CC3C(=O)N(c4ccccc4)C(=O)C3N2Nc2ccccc2)ccc1O (stereo not drawn) ?
A. 0.497
